Target: hyaluronidase from bovine testes type I-S (Bos taurus, UniProt F1MTV1)
Construct: gene SPAM1; native commercial preparation from bovine testes (Sigma-Aldrich, type I-S)
Sequence (F1MTV1 36-553): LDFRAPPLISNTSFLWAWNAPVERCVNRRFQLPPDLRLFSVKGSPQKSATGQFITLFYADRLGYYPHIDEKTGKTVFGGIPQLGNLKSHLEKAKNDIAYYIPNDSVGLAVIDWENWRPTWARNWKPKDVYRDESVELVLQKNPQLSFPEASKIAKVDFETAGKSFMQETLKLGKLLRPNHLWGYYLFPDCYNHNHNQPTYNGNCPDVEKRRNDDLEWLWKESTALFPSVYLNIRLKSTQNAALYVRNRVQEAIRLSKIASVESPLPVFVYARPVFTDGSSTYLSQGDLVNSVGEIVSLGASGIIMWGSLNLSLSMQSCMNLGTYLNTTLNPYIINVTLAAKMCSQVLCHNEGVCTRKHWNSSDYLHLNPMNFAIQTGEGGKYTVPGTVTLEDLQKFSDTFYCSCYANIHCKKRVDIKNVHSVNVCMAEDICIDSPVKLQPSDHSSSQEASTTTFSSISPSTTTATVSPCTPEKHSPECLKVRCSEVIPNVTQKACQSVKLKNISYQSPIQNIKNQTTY
Assay: turbidimetric hyaluronidase inhibition assay
Type: biochemical
Conditions: substrate hyaluronic acid 0.03%, with bovine serum albumin 0.1%; per mL of the enzyme solution; read-out: IC50 (μg/mL) ^a
From the text: turbidimetric hyaluronidase inhibition assay on hyaluronidase from bovine testes type I-S
pIC50: −log10 of the molar value.
readout kind: pIC50

# annotated cases, reported pIC50 shown
O=c1c(O[C@@H]2O[C@H](CO)[C@@H](O)[C@H](O)[C@H]2O[C@@H]2O[C@H](CO)[C@@H](O)[C@H](O)[C@H]2O)c(-c2ccc(O)c(O)c2)oc2cc(O)cc(O)c12 [SQ, quercetin 3-O-β-sophoroside] : < 3.50
Oc1cc(O)c2c(c1)O[C@H](c1ccc(O)c(O)c1)[C@H](O)[C@H]2c1c(O)cc(O)c2c1O[C@H](c1ccc(O)c(O)c1)[C@H](O)C2 : < 3.68
O=C(/C=C/c1ccc(O)c(O)c1)O[C@@H]1C[C@](O)(C(=O)O)C[C@@H](O)[C@H]1O : < 3.47

Field: next compound
Exam item: // fetch pIC50 given entry `O=c1c(O[C@@H]2O[C@H](CO)[C@@H](O)[C@H](O)[C@H]2O)c(-c2ccc(O)c(O)c2)oc2cc(O)cc(O)c12`
Marked response: < 3.37
